Items are presented alongside their recorded inhibition at 10 µM.
biological target: IGF-1R (Homo sapiens, UniProt P08069); construct: purchased Upstate Co. 14-465; test: IGF-1R inhibitory activity (kinase reaction, time-resolved fluoroimmunoassay); type: biochemical; settings: IGF-1R active recombinant enzyme, test compound 10 μmol/L
Sequence (P08069 959-1367 limits assumed): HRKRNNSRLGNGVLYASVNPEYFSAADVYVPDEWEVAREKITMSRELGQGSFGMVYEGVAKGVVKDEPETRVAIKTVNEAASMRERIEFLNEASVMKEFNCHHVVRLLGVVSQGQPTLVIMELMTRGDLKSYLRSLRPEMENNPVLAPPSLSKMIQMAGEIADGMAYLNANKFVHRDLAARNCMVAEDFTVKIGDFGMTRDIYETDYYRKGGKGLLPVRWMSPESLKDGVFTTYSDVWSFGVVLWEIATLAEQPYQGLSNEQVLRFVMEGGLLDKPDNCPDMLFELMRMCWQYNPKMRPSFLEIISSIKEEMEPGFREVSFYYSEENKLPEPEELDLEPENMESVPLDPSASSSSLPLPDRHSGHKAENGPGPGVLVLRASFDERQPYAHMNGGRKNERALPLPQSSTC
Counter-ions that a name gives are not always drawn.
Response body: numeric value in %, unit text excluded.

{"MOLECULE": "Cc1ccsc1C(=O)Nc1cc(C(=O)NCCN(C)C)ccc1/C=C/c1n[nH]c2ccccc12 [Compound 229, hydrochloride]", "UNIT NAME": "%", "ASSAY RESULT": 99.3}

Using the record for C(=C\c1n[nH]c2ccccc12)/c1ccccc1-n1ccc(CNCC2CC2)c1 [Compound 189] , report its inhibition at 10 µM.
102

Using the record for CC(=O)N1CCC(NC(=O)c2ccc(/C=C/c3n[nH]c4ccccc34)c(NC(=O)c3sccc3C)c2)CC1 [Compound 303] , report its inhibition at 10 µM.
100

Using the record for COc1cc(/C=C/c2n[nH]c3ccccc23)c(NC(=O)c2sccc2C)cc1OCCN1CCOCC1 [Compound 293] , report its inhibition at 10 µM.
98.9

Using the record for O=C(Nc1ccccc1/C=C/c1n[nH]c2ccccc12)c1ccc([N+](=O)[O-])cc1 [Compound 65] , report its inhibition at 10 µM.
97.9

Using the record for Cc1nnsc1C(=O)Nc1ccccc1/C=C/c1n[nH]c2ccccc12 [Compound 71] , report its inhibition at 10 µM.
99.4

Using the record for CN(C)C(=O)c1ccc(/C=C/c2n[nH]c3ccccc23)c(N2C(=O)c3cccc(N)c3C2=O)c1 [Compound 326] , report its inhibition at 10 µM.
103

Using the record for O=C(Nc1ccccc1/C=C/c1n[nH]c2ccccc12)C1CCCC1 [Compound 24] , report its inhibition at 10 µM.
97.4

----------
Items are presented alongside their recorded inhibition at 10 µM.
molecular target: IGF-1R (Homo sapiens); construct: purchased Upstate Co. 14-465; assay: IGF-1R inhibitory activity (kinase reaction, time-resolved fluoroimmunoassay); assay type: biochemical; conditions: test compound 10 μmol/L
Response body: numeric value in %, unit text excluded.

{"TEST SMILES": "Cn1cccc1C(=O)Nc1ccc(OCCN2CCOCC2)cc1/C=C/c1n[nH]c2ccccc12", "TARGET OF ASSAY": "IGF-1R (Homo sapiens)", "inhibition at 10 µM (%)": 98.3}
{"TEST SMILES": "Nc1ccc(C(=O)Nc2cc3c(cc2/C=C/c2n[nH]c4ccccc24)OCO3)s1", "TARGET OF ASSAY": "IGF-1R (Homo sapiens)", "inhibition at 10 µM (%)": 98}
{"TEST SMILES": "COc1cccc(/C=C/c2n[nH]c3ccccc23)c1NC(=O)c1cccn1C", "TARGET OF ASSAY": "IGF-1R (Homo sapiens)", "inhibition at 10 µM (%)": 103}
{"TEST SMILES": "Cc1ccsc1C(=O)Nc1cc(C(=O)N2CCCC2)ccc1/C=C/c1n[nH]c2ccccc12", "TARGET OF ASSAY": "IGF-1R (Homo sapiens)", "inhibition at 10 µM (%)": 103}

Using the record for `Cc1ccsc1C(=O)Nc1ccc(O)cc1/C=C/c1n[nH]c2ccccc12` , report its inhibition at 10 µM.
96.3

Using the record for `CN(C)c1ccc(/C=C/c2n[nH]c3ccccc23)c(NC(=O)c2cccn2C)c1` , report its inhibition at 10 µM.
92.8

Using the record for `Cc1ccsc1C(=O)Nc1cc(C(=O)NCCO)ccc1/C=C/c1n[nH]c2ccccc12` , report its inhibition at 10 µM.
92

Using the record for `Cc1ccsc1C(=O)Nc1cc(C(=O)N2CCC(N)CC2)ccc1/C=C/c1n[nH]c2ccccc12` , report its inhibition at 10 µM.
98.1

Using the record for `CCN(CC)C(=O)c1ccc(/C=C/c2n[nH]c3ccccc23)c(NC(=O)c2sccc2C)c1` , report its inhibition at 10 µM.
100

Using the record for `Nc1ccc(C(=O)Nc2ccccc2/C=C/c2n[nH]c3ccccc23)c(Cl)c1` , report its inhibition at 10 µM.
100

Using the record for `Cn1cccc1C(=O)Nc1cc(C(=O)N2CCOCC2)ccc1/C=C/c1n[nH]c2ccccc12` , report its inhibition at 10 µM.
95.9

Using the record for `CC(=O)N1CCN(C(=O)c2ccc(/C=C/c3n[nH]c4ccccc34)c(NC(=O)Cc3cccs3)c2)CC1` , report its inhibition at 10 µM.
98.4

Using the record for `Cc1ccsc1C(=O)Nc1cc(C(=O)N2CCNCC2)ccc1/C=C/c1n[nH]c2ccccc12` , report its inhibition at 10 µM.
97.4

Using the record for `Cc1ccsc1C(=O)Nc1cc(C(=O)N2CC[C@@H](N)C2)ccc1/C=C/c1n[nH]c2ccccc12` , report its inhibition at 10 µM.
97.8

Using the record for `Cc1ccsc1C(=O)Nc1cc(C(=O)N2CCOCC2)ccc1/C=C/c1n[nH]c2ccccc12` , report its inhibition at 10 µM.
98.6

Using the record for `Cc1ccsc1C(=O)Nc1ccc(OCCN2CCOCC2)cc1/C=C/c1n[nH]c2ccccc12` , report its inhibition at 10 µM.
97

Using the record for `N#Cc1ccc(C(=O)Nc2ccccc2/C=C/c2n[nH]c3ccccc23)cc1` , report its inhibition at 10 µM.
96.3

Using the record for `CCCNC(=O)c1ccc(/C=C/c2n[nH]c3ccccc23)c(NC(=O)c2sccc2C)c1` , report its inhibition at 10 µM.
98.5

Using the record for `COc1cc(N)c(/C=C/c2n[nH]c3ccccc23)cc1OC` , report its inhibition at 10 µM.
66.5

Using the record for `CSc1ccc(C(=O)Nc2ccccc2/C=C/c2n[nH]c3ccccc23)cc1` , report its inhibition at 10 µM.
84.7

Using the record for `Cn1cccc1C(=O)Nc1cc2c(cc1/C=C/c1n[nH]c3ccccc13)OCO2` , report its inhibition at 10 µM.
94.1

Using the record for `COc1cccc(/C=C/c2n[nH]c3ccccc23)c1N` , report its inhibition at 10 µM.
70.6

Using the record for `CCN(C)C(=O)c1ccc(/C=C/c2n[nH]c3ccccc23)c(NC(=O)c2sccc2C)c1` , report its inhibition at 10 µM.
98.6

Using the record for `Cc1ccsc1C(=O)Nc1cc2c(cc1/C=C/c1n[nH]c3ccccc13)OCO2` , report its inhibition at 10 µM.
98.3

Using the record for `COc1cccc(/C=C/c2n[nH]c3ccccc23)c1NC(=O)c1sccc1C` , report its inhibition at 10 µM.
95.4
